Some compounds, each annotated with its measured IC50.
Target: CaV3.2 (Homo sapiens)
Construct: expressed in transfected cells; host or cells: unnamed doxycycline-inducible cell line
Sequence (O95180 whole entry): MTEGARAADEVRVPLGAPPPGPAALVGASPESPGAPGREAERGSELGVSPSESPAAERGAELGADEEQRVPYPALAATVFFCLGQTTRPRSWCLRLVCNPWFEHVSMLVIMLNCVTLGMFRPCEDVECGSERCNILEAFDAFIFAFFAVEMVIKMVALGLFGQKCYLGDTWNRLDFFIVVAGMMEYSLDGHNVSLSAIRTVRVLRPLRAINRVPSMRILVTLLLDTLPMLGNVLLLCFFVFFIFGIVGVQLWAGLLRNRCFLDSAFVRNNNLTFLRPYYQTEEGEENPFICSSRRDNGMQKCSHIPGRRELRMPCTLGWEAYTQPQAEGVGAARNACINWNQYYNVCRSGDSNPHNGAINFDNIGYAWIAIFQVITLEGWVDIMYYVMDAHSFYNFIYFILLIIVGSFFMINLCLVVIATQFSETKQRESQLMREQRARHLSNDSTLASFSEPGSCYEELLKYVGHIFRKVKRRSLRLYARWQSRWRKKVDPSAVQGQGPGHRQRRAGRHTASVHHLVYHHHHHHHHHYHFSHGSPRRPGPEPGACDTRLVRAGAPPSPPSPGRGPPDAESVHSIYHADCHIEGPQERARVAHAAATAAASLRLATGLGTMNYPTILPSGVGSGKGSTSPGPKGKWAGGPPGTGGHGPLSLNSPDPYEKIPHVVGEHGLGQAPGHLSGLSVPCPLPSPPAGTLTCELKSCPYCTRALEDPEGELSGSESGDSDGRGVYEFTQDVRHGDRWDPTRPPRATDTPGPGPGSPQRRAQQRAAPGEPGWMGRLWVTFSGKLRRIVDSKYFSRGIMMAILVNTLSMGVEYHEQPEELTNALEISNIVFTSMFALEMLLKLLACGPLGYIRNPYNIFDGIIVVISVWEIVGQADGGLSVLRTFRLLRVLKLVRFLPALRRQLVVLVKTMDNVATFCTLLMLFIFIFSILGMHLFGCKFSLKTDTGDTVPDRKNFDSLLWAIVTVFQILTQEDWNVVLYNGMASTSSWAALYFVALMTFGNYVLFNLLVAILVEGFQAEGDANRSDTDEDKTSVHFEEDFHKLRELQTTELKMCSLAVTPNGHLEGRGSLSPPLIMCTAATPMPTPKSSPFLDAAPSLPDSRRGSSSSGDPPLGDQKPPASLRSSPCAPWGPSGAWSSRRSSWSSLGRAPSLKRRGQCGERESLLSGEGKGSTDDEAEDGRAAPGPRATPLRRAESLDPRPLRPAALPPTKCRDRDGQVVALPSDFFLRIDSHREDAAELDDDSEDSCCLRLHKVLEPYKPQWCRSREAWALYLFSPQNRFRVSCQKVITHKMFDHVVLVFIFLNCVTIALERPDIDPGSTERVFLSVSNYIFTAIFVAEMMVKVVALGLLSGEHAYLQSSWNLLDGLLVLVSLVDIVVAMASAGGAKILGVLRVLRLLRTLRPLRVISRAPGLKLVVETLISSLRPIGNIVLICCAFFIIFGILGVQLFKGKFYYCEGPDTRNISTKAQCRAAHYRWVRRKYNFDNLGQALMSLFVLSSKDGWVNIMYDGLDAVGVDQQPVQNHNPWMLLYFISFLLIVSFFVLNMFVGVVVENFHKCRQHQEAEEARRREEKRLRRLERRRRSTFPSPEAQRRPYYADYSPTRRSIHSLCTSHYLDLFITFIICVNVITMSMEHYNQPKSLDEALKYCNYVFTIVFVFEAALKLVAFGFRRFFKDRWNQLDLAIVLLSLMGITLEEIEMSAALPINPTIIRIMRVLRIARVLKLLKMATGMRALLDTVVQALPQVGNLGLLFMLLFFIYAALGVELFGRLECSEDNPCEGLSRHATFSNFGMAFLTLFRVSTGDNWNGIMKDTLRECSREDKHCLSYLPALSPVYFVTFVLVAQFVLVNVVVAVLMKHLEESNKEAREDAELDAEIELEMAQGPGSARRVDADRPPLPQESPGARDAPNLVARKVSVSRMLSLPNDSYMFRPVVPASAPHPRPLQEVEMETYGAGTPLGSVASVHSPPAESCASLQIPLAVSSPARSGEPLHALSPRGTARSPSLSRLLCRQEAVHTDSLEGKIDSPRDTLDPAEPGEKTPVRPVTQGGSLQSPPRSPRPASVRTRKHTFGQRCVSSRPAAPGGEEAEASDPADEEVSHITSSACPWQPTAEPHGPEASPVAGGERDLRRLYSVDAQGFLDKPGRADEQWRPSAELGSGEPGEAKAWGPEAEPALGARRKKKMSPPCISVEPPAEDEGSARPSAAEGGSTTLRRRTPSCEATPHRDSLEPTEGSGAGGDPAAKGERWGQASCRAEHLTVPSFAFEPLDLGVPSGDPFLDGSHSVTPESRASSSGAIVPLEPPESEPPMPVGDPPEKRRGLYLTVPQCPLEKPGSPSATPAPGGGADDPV
Assay: High-throughput CaV3.2/Kir2.3 T-type FLIPR fluorescent assay
Type: cell-based
Conditions: Table 4; Fluo-4 FLIPR; closed or inactivated state not stated
Give just the number in nM; leave the unit off.

The cases that follow already have their IC50 on record.
* O=C(NCc1ccc(S(=O)(=O)c2cccc(C(F)(F)F)c2)cn1)c1cc(F)cc(Cl)c1 | 1740
* CS(=O)(=O)c1cc(C(F)(F)F)ccc1C(=O)NCc1ccc(S(=O)(=O)c2cccc(C(F)(F)F)c2)cn1 | 1320
* O=C(NCc1cccc(S(=O)(=O)c2cccc(C(F)(F)F)c2)c1)c1cn2cc(C(F)(F)F)ccc2n1 | 370

Then this compound:
Lookup result for `NC1(CC(=O)NCc2ccc(S(=O)(=O)c3cccc(C(F)(F)F)c3)cc2)CCCCC1` ; measured IC50: 5500
